Recorded TGI by entry
system: RXF-631 renal; experiment: NCI tumour cell line growth inhibition, 48 h

Study these solved cases before continuing.
(Q) Identify measured TGI corresponding to CCOC(=O)C1=C(C)N(NC(=O)c2ccccc2)C2(O)CCCC12C(=O)OCC (centres undefined)
(A) > 100 µM

(Q) Identify measured TGI corresponding to O=C1c2ccccc2C(=O)c2c(O)c(O)cc(O)c21
(A) > 100 µM

(Q) Identify measured TGI corresponding to COc1ccccc1NC(=O)C1=C(C)NC(C)=C(C(=O)Nc2ccccc2OC)C1c1ccccc1OC
(A) > 100 µM

(Q) Identify measured TGI corresponding to COC(=O)C(=O)C(C(=O)C(=O)Nc1cc([N+](=O)[O-])ccc1[N+](=O)[O-])c1nc2ccc(C(=O)c3ccccc3)cc2[nH]c1=O (centres undefined)
(A) > 100 µM

(Q) Identify measured TGI corresponding to CCN(CC)c1ccc2c(c1)N=C1N=CC=CN1C2(c1ccc(N(C)C)cc1)c1ccc(N(C)C)cc1
(A) 19.4 µM

Next:
(Q) Identify measured TGI corresponding to O=C(O)CNCc1c2ccccc2[n+]([O-])c2ccccc12
(A) > 100 µM

(Q) Identify measured TGI corresponding to COC(=O)C1=CC2OC13CC1CCC3(C2=O)C1(C)C (centres undefined)
(A) 28 µM

(Q) Identify measured TGI corresponding to O=C1c2ccccc2C(=O)c2nc(-c3ccccc3)c(-c3ccccc3)nc21
(A) > 100 µM

(Q) Identify measured TGI corresponding to O=S1c2ccc(Cl)cc2CC(SSC2Cc3cc(Cl)ccc3S(=O)c3ccccc32)c2ccccc21 (centres undefined)
(A) > 100 µM

----------
tested on: MCF7 breast; test: NCI tumour cell line growth inhibition, 48 h
REPORTED_ENDPOINT: GI50

Study these solved cases before continuing.
(Q) Identify measured GI50 corresponding to C=C[C@]1(C)C=C2C(=O)[C@@]3(O)OC(=O)[C@@]4(CCCC(C)(C)[C@H]34)[C@@]2(O)CC1
(A) 1.42 µM

(Q) Identify measured GI50 corresponding to CCN(CC)CCOc1cc2c(C(=O)OC)c(C)oc2cc1C(C)=O
(A) 22.8 µM

(Q) Identify measured GI50 corresponding to C/C(=C\c1c[nH]c2ccccc12)[N+](=O)[O-]
(A) 2.67 µM

(Q) Identify measured GI50 corresponding to Cn1cnc2c(NCc3ccccc3)nc(NCCO)nc21
(A) 62.9 µM

(Q) Identify measured GI50 corresponding to O=C(Cn1ccnc1[N+](=O)[O-])NCC(F)(F)C(F)(F)F
(A) > 100 µM

(Q) Identify measured GI50 corresponding to COc1ccc(Nc2ccnc(NCCCNc3ccnc4cc(Cl)ccc34)n2)cc1
(A) 0.599 µM

Next:
(Q) Identify measured GI50 corresponding to CC[C@H](C)C(=O)O[C@H]1CCC=C2C=C[C@H](C)C(CCC3C[C@@H](O)CC(=O)O3)[C@H]21 (stereo not given in full)
(A) 39.5 µM

(Q) Identify measured GI50 corresponding to COc1ccc2c(c1)Cc1c-2c(NN)nc2ccccc12
(A) 5.66 µM

(Q) Identify measured GI50 corresponding to Cc1ccc2sc3c(NCCCNCCO)nc4ccccc4c3c(=O)c2c1
(A) 1.61 µM

(Q) Identify measured GI50 corresponding to CCCC(=O)NNc1[nH]c(-c2ccc(OC)cc2)cc1C(=O)OCC
(A) 17.7 µM
